# Tested on: U-937
# assay_explanation: Cytotoxicity against human U937 cells after 48 hrs by MTT assay
# Assay type: functional, cell-based
# details: Homo sapiens, U-937, 48 h
measured_quantity: IC50

- smiles_data: "S=C(Nc1ccc(Cl)cc1)Nc1nc2ccccc2s1"
  endpoint_value: "> 50 µM"
- smiles_data: "Cc1ccc2nc(Nc3nc4ccc(F)cc4s3)sc2c1"
  endpoint_value: "> 50 µM"
- smiles_data: "Fc1ccc2nc(Nc3nc4ccc(Cl)cc4s3)sc2c1"
  endpoint_value: "> 50 µM"

Just for reference, ChEMBL document CHEMBL1932939 is where these values come from.
